- study.system: Galectin-8 (Homo sapiens, UniProt O00214)
- Sequence (O00214 whole entry, the tested form may be a part): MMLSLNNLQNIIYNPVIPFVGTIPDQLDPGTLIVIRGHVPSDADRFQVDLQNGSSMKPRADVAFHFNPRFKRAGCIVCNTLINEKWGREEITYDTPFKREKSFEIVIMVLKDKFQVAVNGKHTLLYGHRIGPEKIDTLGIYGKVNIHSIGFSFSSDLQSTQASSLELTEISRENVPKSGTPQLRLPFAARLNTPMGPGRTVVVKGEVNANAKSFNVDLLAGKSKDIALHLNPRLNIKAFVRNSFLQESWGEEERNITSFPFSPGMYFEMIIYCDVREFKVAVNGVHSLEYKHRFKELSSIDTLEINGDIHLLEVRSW
- assay.text: Binding affinity to C-terminal domain human Gal-8 expressed in Escherichia coli BL21 (DE3) cells by competitive fluorescence polarization assay
pKd: −log10 of the molar value.

>  <compound.smiles>
O=C(NS(=O)(=O)c1cc(Cl)c(Cl)s1)c1cc2cc(Oc3ccc(Cl)cc3Br)ccc2[nH]1

>  <pKd>
4.85

$$$$
>  <compound.smiles>
O=C(NS(=O)(=O)c1cc(Cl)c(Cl)s1)c1cc2cc(Oc3ccc(Cl)c(Cl)c3)ccc2o1

>  <pKd>
5.02

$$$$
>  <compound.smiles>
O=C(NS(=O)(=O)c1cc(Cl)c(Cl)s1)c1cc2cc(Oc3ccc(Br)cc3F)ccc2[nH]1

>  <pKd>
5.14

$$$$
>  <compound.smiles>
Cc1nc(Cl)sc1S(=O)(=O)NC(=O)c1cc2cc(Oc3ccc(Cl)c(Cl)c3)ccc2[nH]1

>  <pKd>
4.69

$$$$
